- system: GST-Aq-NF-kB (Amphimedon queenslandica, UniProt A9Y5G7 2-389)
- Sequence: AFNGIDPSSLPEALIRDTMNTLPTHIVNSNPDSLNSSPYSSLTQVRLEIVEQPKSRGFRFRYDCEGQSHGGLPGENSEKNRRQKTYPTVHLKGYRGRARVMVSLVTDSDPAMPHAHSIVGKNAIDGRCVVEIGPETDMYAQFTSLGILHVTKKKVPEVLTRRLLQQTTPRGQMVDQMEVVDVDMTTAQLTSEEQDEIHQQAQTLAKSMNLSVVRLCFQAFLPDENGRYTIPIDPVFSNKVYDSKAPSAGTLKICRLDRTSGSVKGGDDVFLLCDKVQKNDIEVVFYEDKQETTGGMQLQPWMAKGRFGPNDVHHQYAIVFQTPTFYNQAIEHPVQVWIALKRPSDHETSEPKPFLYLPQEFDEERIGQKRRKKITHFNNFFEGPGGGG
- assay-text: protein-binding microarray (PBM); PBM: ~300 nM protein, 6 mM HEPES pH 7.8, 80 mM KCl, 0.5 mM EDTA, 0.5 mM EGTA, 6% glycerol, 35 ng/ul poly-dIdC, 1% milk, 1 h, room temperature; high values mean tight binding
- run-conditions: dsDNA, one strand shown
observation-type: binding signal (z-score)
Answers are plain numbers, in z-score.

// below: answered sequences
sequence-text | endpoint-unit | binding signal
CCGATTAACATCAGGGGGGGACATGATGTTAATCGGGTCTTGATTCGCTTGACGCTGCTG | z-score | 4.34
CCGATTAACATCAGCATTTTCCCTGATGTTAATCGGGTCTTGATTCGCTTGACGCTGCTG | z-score | 3.68

Each of the following entries comes with a recorded value; kindly state binding signal for each.
1. CCGATTAACATCAGGGATATACCTGATGTTAATCGGGTCTTGATTCGCTTGACGCTGCTG
2. CCGATTAACATCAAGCCCCCCCCTGATGTTAATCGGGTCTTGATTCGCTTGACGCTGCTG
3. CCGATTAACATCACGAAATCCCCTGATGTTAATCGGGTCTTGATTCGCTTGACGCTGCTG

**A:**
[5.31, 4.71, 6.39]

====

I'd appreciate it if you could supply binding signal values for the items below.
- system: GST-Co-NF-kB (Capsaspora owczarzaki, UniProt F1ARL5 200-546)
- Sequence: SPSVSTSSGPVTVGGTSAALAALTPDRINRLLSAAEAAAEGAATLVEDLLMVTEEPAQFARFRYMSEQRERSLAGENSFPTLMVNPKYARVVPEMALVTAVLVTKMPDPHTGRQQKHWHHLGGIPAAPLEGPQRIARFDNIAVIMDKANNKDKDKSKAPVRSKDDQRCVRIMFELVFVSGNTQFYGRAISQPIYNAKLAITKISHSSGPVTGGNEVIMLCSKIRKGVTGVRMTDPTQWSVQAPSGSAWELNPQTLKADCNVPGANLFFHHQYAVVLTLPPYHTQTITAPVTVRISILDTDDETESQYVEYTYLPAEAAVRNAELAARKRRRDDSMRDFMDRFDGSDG
- assay-text: protein-binding microarray (PBM); PBM: ~300 nM protein, 6 mM HEPES pH 7.8, 80 mM KCl, 0.5 mM EDTA, 0.5 mM EGTA, 6% glycerol, 35 ng/ul poly-dIdC, 1% milk, 1 h, room temperature; Ap Aiptasia and Nv Nematostella (sea anemones) / Co Capsaspora / Aq Amphimedon (sponge) / Dm Drosophila / Hu human; RHD is the Rel homology domain; high values mean tight binding
- run-conditions: dsDNA, one strand shown
Numbers only, in z-score.

sequence-text | observation-type | observed-result
CCGATTAACATCAGGGGGATTAATGATGTTAATCGGGTCTTGATTCGCTTGACGCTGCTG | binding signal | 6.77

Look up binding signal for the entries below, preserving their order.
1. CCGATTAACATCAGGAGATCCCCTGATGTTAATCGGGTCTTGATTCGCTTGACGCTGCTG
2. CCGATTAACATCAAGAGATCCCCTGATGTTAATCGGGTCTTGATTCGCTTGACGCTGCTG
3. CCGATTAACATCACCCCGAACGCTGATGTTAATCGGGTCTTGATTCGCTTGACGCTGCTG
4. CCGATTAACATCAGGGGGTAAGATGATGTTAATCGGGTCTTGATTCGCTTGACGCTGCTG
5. CCGATTAACATCAATCTCCCCCATGATGTTAATCGGGTCTTGATTCGCTTGACGCTGCTG
6. CCGATTAACATCAGGGGACATTATGATGTTAATCGGGTCTTGATTCGCTTGACGCTGCTG

**A:**
1: 2.55; 2: 2.3; 3: 2.02; 4: 5.47; 5: 8.65; 6: 4.2

Quick batch: binding signal for everything below.
1. CCGATTAACATCACATTCTCCCCTGATGTTAATCGGGTCTTGATTCGCTTGACGCTGCTG
2. CCGATTAACATCATATTTCCCCATGATGTTAATCGGGTCTTGATTCGCTTGACGCTGCTG
3. CCGATTAACATCAAAGAGTCCCCTGATGTTAATCGGGTCTTGATTCGCTTGACGCTGCTG
4. CCGATTAACATCACAGGGAATTCTGATGTTAATCGGGTCTTGATTCGCTTGACGCTGCTG
5. CCGATTAACATCATGTATGCCCCTGATGTTAATCGGGTCTTGATTCGCTTGACGCTGCTG
6. CCGATTAACATCAAGAGTTCCCCTGATGTTAATCGGGTCTTGATTCGCTTGACGCTGCTG
7. CCGATTAACATCAGGGGGTGTAATGATGTTAATCGGGTCTTGATTCGCTTGACGCTGCTG

**A:**
[6.71, 8.62, 3.49, 3.45, 1.24, 6.55, 3.87]

Here are 4 sequences. What values of binding signal were reported for them?
1. CCGATTAACATCAGGGAATCAGATGATGTTAATCGGGTCTTGATTCGCTTGACGCTGCTG
2. CCGATTAACATCACATACCCCCCTGATGTTAATCGGGTCTTGATTCGCTTGACGCTGCTG
3. CCGATTAACATCAGAAACTTCCCTGATGTTAATCGGGTCTTGATTCGCTTGACGCTGCTG
4. CCGATTAACATCAACGGTGGGAATGATGTTAATCGGGTCTTGATTCGCTTGACGCTGCTG

**A:**
1. 1.68
2. 3.97
3. 2.41
4. 2.19

Entry source: paper PMC5700166
